molecular target: activated KRAS in MIA PaCa-2 (Homo sapiens, UniProt P01116, G12C); construct: host or cells: MIA PaCa-2; experiment: Amount of activated KRAS on KRAS-G12C mutant cell line MIA PaCa-2 (Ras GTPase Chemi ELISA); type: cell-based; settings: MIA PaCa-2, with EGF 100 ng/ml, 1 hour with compound; read-out: IC50 MIA PaCa-2 with EGF
Sequence (P01116 1-188 isoform P01116-2 G12C): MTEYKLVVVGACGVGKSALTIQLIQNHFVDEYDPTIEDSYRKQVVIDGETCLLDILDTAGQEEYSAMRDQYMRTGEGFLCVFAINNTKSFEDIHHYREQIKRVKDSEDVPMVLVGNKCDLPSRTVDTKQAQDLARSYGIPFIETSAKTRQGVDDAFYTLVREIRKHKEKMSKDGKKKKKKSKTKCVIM
MEASUREMENT LABEL: IC50 (nM)
Note: unit nM is implicit; provide only the numeric part.

"CCc1nc2cc(-c3cccc(NC(=O)c4ccc(NC(=O)/C=C/CN[C@H]5CC[C@H](OC)CC5)c(C#N)c4)c3)c(C(F)(F)F)cc2n1C" yielded IC50 of 1000

Field IC50 (entry C=CC(=O)N1CCN(c2ncnc3c(F)c(-c4c(O)cccc4F)c(Cl)cc23)CC1 [ARS-1620, reference compound] ) reads 4200

Looking up "CO[C@H]1CC[C@H](NC/C=C/C(=O)Nc2ccc(C(=O)c3ccc4c(-c5cc6ncn(C)c6cc5C)cccn34)cc2C#N)CC1" , I see its IC50 listed as 440

---

molecular target: activated KRAS in MIA PaCa-2 (Homo sapiens, UniProt P01116, G12C); construct: host or cells: MIA PaCa-2; assay: Amount of activated KRAS on KRAS-G12C mutant cell line MIA PaCa-2 (Ras GTPase Chemi ELISA); format: cell-based; settings: MIA PaCa-2, without EGF, 1 hour with compound; read-out: IC50 MIA PaCa-2 without EGF
MEASUREMENT LABEL: IC50 (nM)
Give your result in nM as a bare value.

Entry "CCc1nc2cc(-c3cccc(NC(=O)c4ccc(NC(=O)/C=C/CN[C@H]5CC[C@H](OC)CC5)c(C#N)c4)c3)c(C(F)(F)F)cc2n1C" ; IC50 = 780

Form field IC50, entry C=CC(=O)N1CCN(c2ncnc3c(F)c(-c4c(O)cccc4F)c(Cl)cc23)CC1 [ARS-1620, reference compound] : 650

Per the records, this compound ( "CO[C@H]1CC[C@H](NC/C=C/C(=O)Nc2ccc(C(=O)c3ccc4c(-c5cc6ncn(C)c6cc5C)cccn34)cc2C#N)CC1" ) has IC50 equal to 300

---

biological target: GMPPNP-bound KRAS G12C protein and cRAF RAS-binding domain (cRAF-RBD) (Homo sapiens, UniProt P01116, G12C); construct: made in house; host or cells: E. coli; test: Inhibitory activity on interaction between KRAS G12C and cRAF (Alpha technology); assay type: biochemical; settings: GMPPNP-bound KRAS G12C incubated with compound at 25° C. for 1 hour, then cRAF-RBD, Alpha signal; read-out: IC50
Sequence (P01116 with tags, fused parts or gaps isoform P01116-2 G12C): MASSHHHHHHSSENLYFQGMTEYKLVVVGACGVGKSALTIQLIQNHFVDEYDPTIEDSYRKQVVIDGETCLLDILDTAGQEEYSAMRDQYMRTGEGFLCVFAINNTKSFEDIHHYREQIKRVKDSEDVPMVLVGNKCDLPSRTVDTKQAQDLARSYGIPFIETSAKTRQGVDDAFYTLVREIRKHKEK
MEASUREMENT LABEL: pIC50
Quick note: pIC50 means taking -log10 of the concentration in moles per liter.

Recorded pIC50 (compound "CCc1cc2c(cc1-c1cccc(NC(=O)c3ccc(NC(=O)/C=C/CN[C@H]4CC[C@H](OC)CC4)c(C#N)c3)c1)nc1n2CCC1" ): 7.57

Value of measured pIC50 for the entry "COCc1nc2cc(-c3cccc(NC(=O)c4ccc(NC(=O)/C=C/CNC5CCCCC5)c(C#N)c4)c3)c(C(F)(F)F)cc2n1C" : 6.46

The reported value for "CO[C@H]1CC[C@H](NC/C=C/C(=O)Nc2ccc(C(=O)c3ccc4c(-c5ccc6nn(C)cc6c5Cl)cccn34)cc2C#N)CC1" in terms of pIC50 is 6.85

Briefly, pIC50 measured for "CCc1nc2cc(-c3cccc4c3CCN4C(=O)c3ccc(NC(=O)/C=C/CN[C@H]4CC[C@H](OC)CC4)c(C#N)c3)c(C(F)(F)F)cc2n1C" : 6.72

Item: "CO[C@H]1CC[C@H](NC/C=C/C(=O)Nc2ccc(C(=O)c3ccc4c(-c5c(C)cc6c(ncn6C)c5C(C)C)cccn34)cc2C#N)CC1" | pIC50: 7.09

Notebook: "CO[C@H]1CC[C@H](NC/C=C/C(=O)Nc2ccc(C(=O)c3c[nH]c4c(-c5cc6ncn(C)c6cc5C(F)(F)F)cccc34)c(F)c2)CC1" , pIC50 read as 6.36

Record summary for "Cn1cnc2cc(-c3cccn4c(C(=O)c5ccc(NC(=O)/C=C/CNC(C)(C)C)c(Cl)c5)ccc34)c(C(F)(F)F)cc21" : reported pIC50 = 6.48

# pIC50 of "CO[C@H]1CC[C@H](NC/C=C/C(=O)Nc2ccc(C(=O)c3ccc4c(-c5cc6ncn(C)c6cc5C)cccn34)cc2C#N)CC1" = 7.64

Form: compound = "CCc1nc2cc(-c3cccc4c3CCN4C(=O)c3ccc(NC(=O)/C=C/CN[C@H]4CC[C@H](N5CCCC5)CC4)c(C#N)c3)c(C(F)(F)F)cc2n1C" ; pIC50 = 7.02

Sample "COc1cccc(Cl)c1-c1cccn2c(C(=O)c3ccc(NC(=O)/C=C/CN[C@H]4CC[C@H](OC)CC4)c(C#N)c3)ccc12" ; pIC50 observed: 7.07

The compound listed as CO[C@H]1CC[C@H](NC/C=C/C(=O)Nc2ccc(C(=O)c3ccc4c(-c5c(Cl)cc6c(ncn6C)c5Cl)cccn34)cc2C#N)CC1 (single isomer, unassigned) [Example 62] shows pIC50 equal to 7.24

Form: compound = "CCc1nc2c(Cl)c(-c3cccc(NC(=O)c4ccc(NC(=O)/C=C/CN[C@H]5CC[C@H](OC)CC5)c(C#N)c4)c3)c(C(F)(F)F)cc2n1C" ; pIC50 = 6.70

Record summary for "Cc1cc(C(=O)c2ccc3c(-c4cc5ncn(C)c5cc4C(F)(F)F)cccn23)cc(C#N)c1NC(=O)/C=C/CNC(C)(C)C" : reported pIC50 = 5.92

Briefly, pIC50 measured for "CO[C@H]1CC[C@H](NC/C=C/C(=O)Nc2ccc(C(=O)c3ccc4c(-c5cc6ncn(C)c6cc5C(F)(F)F)cccn34)cc2)CC1" : 6.52

pIC50 in this record for "CCc1nc2cc(-c3cccc(NC(=O)c4ccc(NC(=O)/C=C/CN[C@H]5CC[C@H](OC)CC5)c(C#N)c4)c3)c(C(F)(F)F)cc2n1C" : 6.74

Noted for "CO[C@H]1CC[C@H](NC/C=C/C(=O)Nc2ccc(C(=O)c3ccc4c(-c5ccc6nn(C)c(Cl)c6c5Cl)cccn34)cc2C#N)CC1" : its pIC50 reads 6.36

Reported pIC50 for "Cc1cc2c(cnn2C)cc1-c1cccn2c(C(=O)c3ccc(NC(=O)/C=C/CNC(C)(C)C)c(C#N)c3)ccc12" was 6.74

"C=C(C)c1c(-c2cccn3c(C(=O)c4ccc(NC(=O)/C=C/CNC(C)(C)C)c(C#N)c4)ccc23)c(C)cc2c1ncn2C" yielded pIC50 of 6.64

The recorded pIC50 for entry "CN(C)C/C=C/C(=O)Nc1ccc(C(=O)c2ccc3c(-c4cc5ncn(C)c5cc4C(F)(F)F)cccn23)cc1C#N" equals 7.08

Quick note, pIC50 for "O=C(/C=C/CN[C@H]1CC[C@H](O)CC1)Nc1ccc(C(=O)Nc2cccc(-c3cc4nc[nH]c4cc3Cl)c2)cn1" landed at 6.08

Field pIC50 (entry "CO[C@H]1CC[C@H](NC/C=C/C(=O)Nc2c(F)cc(C(=O)c3ccc4c(-c5cc6ncn(C)c6cc5C)cccn34)cc2F)CC1" ) reads 7.49

Measured pIC50 of "COCc1nc2cc(-c3cccc(NC(=O)c4ccc(NC(=O)/C=C/CN[C@H]5CC[C@H](OC)CC5)c(C#N)c4)c3)c(C(F)(F)F)cc2n1C" : 6.66

compound "COCc1nc2cc(-c3cccc(NC(=O)c4ccc(NC(=O)/C=C/CNC5(C)CCC6(CC5)OCCO6)c(C#N)c4)c3)c(C(F)(F)F)cc2n1C" , pIC50 observed: 6.82

Entry under test: "Cc1nc2c(Cl)c(-c3cccc(NC(=O)c4ccc(NC(=O)/C=C/CNC5CCC(F)(F)CC5)c(C#N)c4)c3)c(Cl)cc2n1C" . Its pIC50 was 6.82
